targetSystem: Inward rectifier potassium channel 2 (Mus musculus)
runDescription: Kir2.1 channel inhibition, specificity check, SAR follow-up, selectivity assay for KCNK9 inhibitor project, cell-based, FluxOR thallium flux, CRC round 2 (AID 540321)
settings: Kir2.1-expressing cells; series mostly up to 30 µM
Calls of active or inactive are those of the source.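 Rule for the calls: active = Inhibition of the Kir2.1 potassium channel over 30% at some tested dose, plus a fitted dose response curve; inactive = no Kir2.1 inhibition at any dose, or no curve fitted.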
endpoint: outcome

Input: Entry under review: `COc1ccc(C(=O)Nc2cccc(NC(=O)c3cccc(C)c3)c2)cc1` . Reported outcome?
Output: inactive

Input: Entry under review: `Cc1cccc(C(=O)Nc2cccc(NC(=O)c3ccc(N(C)C)cc3)c2)c1` . Reported outcome?
Output: inactive

Input: Entry under review: `CCOc1ccccc1NC(=O)c1cccc(NC(=O)c2ccc(OC)cc2)c1` . Reported outcome?
Output: inactive

Input: Entry under review: `S=c1[nH]nc(-c2ccco2)n1CC1CCCCC1` . Reported outcome?
Output: inactive

Input: Entry under review: `O=C(Nc1cccc(NC(=O)c2ccncc2)c1)c1ccccc1` . Reported outcome?
Output: inactive

Parameter requested: outcome. Apply to each item below.
1. CCOc1ccccc1NC(=O)c1cccc(NC(=O)c2ccc(C(F)(F)F)cc2)c1
2. CCOc1ccccc1NC(=O)c1cccc(NC(=O)CC2CCCC2)c1
3. CCOc1ccccc1NC(=O)c1cccc(NC(=O)c2ccccc2OC)c1
4. O=C(Nc1cccc(NC(=O)c2ccccc2C(F)(F)F)c1)c1ccccc1
5. Cc1cccc(C(=O)Nc2cccc(NC(=O)c3ccccc3OCC(C)C)c2)c1
6. CC(C1CC2CCC1C2)n1c(-c2ccccc2)n[nH]c1=S (configuration not stated)

Output:
inactive
inactive
inactive
inactive
inactive
inactive

Input: Entry under review: `CCOc1ccccc1NC(=O)c1cccc(NC(=O)c2cccc(C(F)(F)F)c2)c1` . Reported outcome?
Output: inactive
